- Test system: Trichophyton quinckeanum
- Protocol description: Antifungal activity against 5 x 10^6 CFU/ml Trichophyton quinckeanum B68683 by resazurin based fluorimetry assay
- Type: functional, organism-based

>  <Compound>
CC(C)N1CCN(c2ccc(N3CCN(c4ccc(OC[C@H]5OC[C@](Cn6cncn6)(c6ccc(F)cc6F)O5)cc4)CC3)cc2)C1=O

>  <IC50, µM>
1.34

$$$$
>  <Compound>
CCC(C)n1ncn(-c2ccc(N3CCN(c4ccc(OCC5COC(Cn6cncn6)(c6ccc(Cl)cc6Cl)O5)cc4)CC3)cc2)c1=O (centres undefined)

>  <IC50, µM>
2.93

$$$$
>  <Compound>
CN(C/C=C/C#CC(C)(C)C)Cc1cccc2ccccc12

>  <IC50, µM>
0.01

$$$$
>  <Compound>
Clc1ccc(COC(Cn2ccnc2)c2ccc(Cl)cc2Cl)c(Cl)c1 (centres undefined)

>  <IC50, µM>
0.79

$$$$
